# Assayed System: Coagulation factor XI (Homo sapiens) (UniProt P03951)
# Sequence (P03951 19-387 limits assumed): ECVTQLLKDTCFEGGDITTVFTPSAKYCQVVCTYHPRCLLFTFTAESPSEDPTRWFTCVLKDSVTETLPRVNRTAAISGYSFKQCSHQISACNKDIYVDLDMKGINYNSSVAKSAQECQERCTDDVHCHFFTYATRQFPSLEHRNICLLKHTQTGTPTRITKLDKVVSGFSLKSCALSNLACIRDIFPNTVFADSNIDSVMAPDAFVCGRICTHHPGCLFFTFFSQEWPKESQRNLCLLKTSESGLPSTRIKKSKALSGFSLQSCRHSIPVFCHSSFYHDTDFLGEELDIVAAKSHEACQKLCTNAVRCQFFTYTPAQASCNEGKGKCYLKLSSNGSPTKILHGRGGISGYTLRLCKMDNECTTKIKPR
# Sequence (P03951 388-625 limits assumed): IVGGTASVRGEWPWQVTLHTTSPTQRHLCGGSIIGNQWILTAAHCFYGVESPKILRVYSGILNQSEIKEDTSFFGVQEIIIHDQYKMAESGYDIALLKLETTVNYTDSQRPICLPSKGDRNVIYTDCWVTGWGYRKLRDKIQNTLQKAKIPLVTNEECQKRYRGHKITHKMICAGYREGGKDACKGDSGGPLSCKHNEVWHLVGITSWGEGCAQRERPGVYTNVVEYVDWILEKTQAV
# Assay: FXIa inhibitor IC50 values, dose response, biochemical, hits from single-well screen (AID 721)
# Condition Info: purified factor XIa enzymatic assay, fluorescence
Calls of active or inactive are those of the source. How the calls were made is not given here.
Reported Endpoint: IC50

>>> print(df.to_string())
                                    compound              result
 0  O=C(NCc1ccccc1)C1CCCN(S(=O)(=O)c2cccc3nonc23)C1 (stereo unspecified)  > 50 µM (inactive)
 1       COc1ccc(CC(=O)NCc2ccc3c(c2)OCO3)cc1  > 50 µM (inactive)
 2  C=CCn1c(=O)c2c(nc(Br)n2Cc2ccccc2Cl)n(C)c1=O            0.638 µM
 3              CCCC(=O)n1nc(-c2ccccc2)nc1SC  > 50 µM (inactive)
 4  O=S(=O)(Cc1ccccc1)N1CCC(c2nc(-c3cccs3)no2)CC1  > 50 µM (inactive)
 5  COc1cccc(C(=O)N(Cc2ccccc2)Cc2cc3cc4c(cc3[nH]c2=O)OCCO4)c1             10.4 µM
 6          O=C(c1cccc2ccccc12)n1nnc2ccccc21  > 50 µM (inactive)
 7  N#Cc1ccc(NC(=O)COC(=O)CNC(=O)C2CCCCC2)cc1  > 50 µM (inactive)
 8  O=C(CCCN1C(=O)c2ccccc2C1=O)NCC1CCCO1 (stereo unspecified)             14.6 µM
 9  Cc1c(O)ccc(C(=O)CN2C(=O)c3ccccc3C2=O)c1O  > 50 µM (inactive)
10  CCc1ccc(CC2S/C(=C(\C#N)C(C)=O)NC2=O)cc1 (stereo unspecified)  > 50 µM (inactive)
